Below, each entry is listed with its recorded inhibition at 100 µM.
tested on: T. circumcincta resistant strain; test: Egg hatch inhibition (EHI), ovicidal effect; parameters: species or system Teladorsagia circumcincta; settings: Teladorsagia circumcincta, resistant strain, 100 μM; NE = Not Effective at 100 μM; control thiabendazole 0.1 µg/mL
A number alone suffices; assume %.

Solved entries (count: 3):
• CCCCCCCCN=c1ccn(CCCCCCCCCCn2ccc(=NCCCCCCCC)cc2)cc1 [Octenidine, reference compound] = 99.5
• O=C(/C=C/c1ccccc1)c1ccccc1 = 100
• CCc1nn(C)c(C(=O)NCc2ccc(Oc3ccc(C)cc3)cc2)c1Cl = 99.7

For the next question, use this compound.
What does the record list as inhibition at 100 µM for c1ccc2[nH]c(-c3cscn3)nc2c1 [Thiabendazole, reference compound] ?
100
